Reference for the values: patent US10479780B2

# target.desc: human Lck enzyme (Homo sapiens, UniProt P06239)
# Construct: purchased Carna Biosciences, Inc. 08-170
# Sequence (P06239 whole entry): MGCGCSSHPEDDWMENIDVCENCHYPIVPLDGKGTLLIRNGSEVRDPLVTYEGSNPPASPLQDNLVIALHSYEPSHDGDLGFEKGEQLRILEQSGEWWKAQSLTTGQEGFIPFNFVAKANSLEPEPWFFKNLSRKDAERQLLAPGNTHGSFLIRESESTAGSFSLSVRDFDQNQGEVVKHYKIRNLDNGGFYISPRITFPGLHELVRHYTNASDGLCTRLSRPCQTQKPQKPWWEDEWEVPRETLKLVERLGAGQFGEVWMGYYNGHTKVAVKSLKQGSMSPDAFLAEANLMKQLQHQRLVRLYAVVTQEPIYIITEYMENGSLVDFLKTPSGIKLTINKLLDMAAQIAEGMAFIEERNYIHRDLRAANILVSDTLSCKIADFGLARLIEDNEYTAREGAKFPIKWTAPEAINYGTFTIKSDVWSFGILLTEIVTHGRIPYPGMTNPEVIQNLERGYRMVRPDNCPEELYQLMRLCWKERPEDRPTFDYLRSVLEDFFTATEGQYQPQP
# measurement.description: Lck enzyme inhibitory activity (time-resolved fluorometry, biotinylated peptide phosphorylation)
# Type: biochemical
# protocol.conditions: biotinylated peptide phosphorylation, read-out: LCK_IC50
pIC50: −log10 of the molar value.
quantity: pIC50

Solved entries (count: 10):
| compound | target.desc | pIC50 |
| --- | --- | --- |
| Cc1cc2cc(C(=O)c3cnn(-c4cnc(Oc5ccccc5F)cc4C)c3N)[nH]c2cc1NS(=O)(=O)c1cccnc1 [Example 5-1-441] | human Lck enzyme (Homo sapiens, UniProt P06239) | 7.14 |
| Cc1cc(Oc2c(F)cccc2F)ncc1-n1ncc(C(=O)c2cc3cc(F)c(N4C(=O)[C@@H]5CCCN5C4=O)cc3[nH]2)c1N [Example 5-1-432] | human Lck enzyme (Homo sapiens, UniProt P06239) | 8.11 |
| Cc1cc(Oc2ccccc2F)ccc1-n1ncc(C(=O)c2cc3cc(F)c(NS(C)(=O)=O)cc3[nH]2)c1N [Example 4-1-002] | human Lck enzyme (Homo sapiens, UniProt P06239) | 8.12 |
| Cc1cc(Oc2ccccc2F)ncc1-n1ncc(C(=O)c2cc3cc(OCC(F)F)c(NS(=O)(=O)CCCF)cc3[nH]2)c1N [Example 4-24-029] | human Lck enzyme (Homo sapiens, UniProt P06239) | 7.54 |
| Cc1cc(Oc2c(F)cccc2F)ncc1-n1ncc(C(=O)c2cc3cc(OCC(F)F)c(NS(=O)(=O)C4CC4)cc3[nH]2)c1N [Example 4-24-030] | human Lck enzyme (Homo sapiens, UniProt P06239) | 7.64 |
| Cc1cnc(F)c(S(=O)(=O)Nc2cc3[nH]c(C(=O)c4cnn(-c5ccc(Oc6ccccc6F)cc5C)c4N)cc3cc2C)c1 [Example 5-1-520] | human Lck enzyme (Homo sapiens, UniProt P06239) | 7.17 |
| Cc1cc(Oc2ccccc2F)ccc1-n1ncc(C(=O)c2cc3cc(OC(F)F)c(N4CCOC4=O)cc3[nH]2)c1N [Example 4-21-007] | human Lck enzyme (Homo sapiens, UniProt P06239) | 8.19 |
| COc1cc2cc(C(=O)c3cnn(-c4cnc(Oc5ccccc5F)cc4C)c3N)[nH]c2cc1NC(C)=O [Example 4-11-001] | human Lck enzyme (Homo sapiens, UniProt P06239) | 8.25 |
| Cc1cc(-n2ncc(C(=O)c3cc4cc(C)c(N5C(=O)NC(C)(C(F)(F)F)C5=O)cc4[nH]3)c2N)ccc1Oc1ccccc1F (stereo not shown) [Example 5-1-472] | human Lck enzyme (Homo sapiens, UniProt P06239) | 6.15 |
| Cc1cc2[nH]c(C(=O)c3cnn(-c4cnc(Oc5ccccc5F)cc4C)c3N)cc2cc1NS(C)(=O)=O [Example 4-2-052] | human Lck enzyme (Homo sapiens, UniProt P06239) | 9.01 |

1. CC(=O)N1CCC(c2cc3[nH]c(C(=O)c4cnn(-c5cnc(Oc6ccccc6F)cc5C)c4N)cc3cc2OCC(F)F)CC1 [Example 4-17-020]
2. Cc1cc(Oc2ccccc2F)ccc1-n1ncc(C(=O)c2cc3cc(OC(F)F)c(NC4CCN(S(C)(=O)=O)CC4)cc3[nH]2)c1N [Example 4-23-010]
3. Cc1cc(Oc2ccccc2F)ncc1-n1ncc(C(=O)c2cc3cc(NS(C)(=O)=O)c(OCCN4CCOCC4)cc3[nH]2)c1N [Example 4-2-129]
4. Cc1cc(Oc2c(F)cccc2F)ncc1-n1ncc(C(=O)c2cc3cc(OC(F)F)c(C4CCNCC4)cc3[nH]2)c1N [Example 4-4-001]
5. Cc1cc(Oc2ccccc2F)cc(C)c1-n1ncc(C(=O)c2cc3cc(F)c(NS(=O)(=O)C4CC4)cc3[nH]2)c1N [Example 4-2-042]
IN: Task field, ranking: reported pIC50, descending order. Enter labels, ranked according to the request.
OUT: 3, 1, 4, 2, 5
(3: 8.85, 1: 8.48, 4: 8.09, 2: 7.60, 5: 6.43)

I. CC(C)N1CCC(c2cc3cc(C(=O)c4cnn(-c5ccc(Oc6cccc(F)c6)cc5)c4N)[nH]c3cc2F)CC1 [Example 4-2-006]
II. Cc1cc2cc(C(=O)c3cnn(-c4cnc(Oc5ccccc5F)cc4C)c3N)[nH]c2cc1NS(=O)(=O)c1cncc(C(F)(F)F)c1 [Example 5-1-487]
III. Cc1cc(Oc2ccccc2F)cc(F)c1-n1ncc(C(=O)c2cc3cc(OC(F)F)c(NC4CN(S(C)(=O)=O)C4)cc3[nH]2)c1N [Example 4-23-024]
IV. Cc1cc(Oc2c(F)cccc2F)ncc1-n1ncc(C(=O)c2cc3cc(OCC(F)F)c(-n4c(C)cc(=O)[nH]c4=O)cc3[nH]2)c1N [Example 4-23-029]
IN: Give the ascending ranking of the items by reported pIC50. Answer with the labels in sequence, matching the requested order.
OUT: II, III, IV, I

a. CC(C)N1CCC(c2cc3cc(C(=O)c4cnn(-c5ccc(Oc6ccccc6F)cc5F)c4N)[nH]c3cc2F)CC1 [Example 4-2-009]
b. Cc1cc2cc(C(=O)c3cnn(-c4cnc(Oc5c(F)cccc5F)cc4C)c3N)[nH]c2cc1N1CCOCC1 [Example 4-2-124]
c. Cc1cc(Oc2ccccc2F)cc(F)c1-n1ncc(C(=O)c2cc3cc(OC(F)F)c(NS(=O)(=O)C4CC4)cc3[nH]2)c1N [Example 4-24-005]
d. Cc1cncc(S(=O)(=O)Nc2cc3[nH]c(C(=O)c4cnn(-c5cnc(Oc6ccccc6F)cc5C)c4N)cc3cc2C)c1 [Example 5-1-488]
IN: Rank the 4 compounds: largest pIC50 first, smallest last. The labels, placed in the requested order, form the answer.
OUT: a, b, c, d
(a: 8.47, b: 8.16, c: 7.33, d: 6.92)

A. Cc1cc2cc(C(=O)c3cnn(-c4cnc(Oc5ccccc5Cl)cc4C)c3N)[nH]c2cc1NS(C)(=O)=O [Example 4-2-063]
B. Cc1cc2cc(C(=O)c3cnn(-c4ccc(Oc5ccccc5F)cc4C)c3N)[nH]c2cc1NS(=O)(=O)c1cccc(F)n1 [Example 5-1-515]
IN: In terms of reported pIC50, does A or B have the smaller number? Reply with the label of the item you choose.
OUT: B

###

# target.desc: human Yes1 enzyme (Homo sapiens, UniProt P07947)
# Construct: made in house
# Sequence (P07947 whole entry): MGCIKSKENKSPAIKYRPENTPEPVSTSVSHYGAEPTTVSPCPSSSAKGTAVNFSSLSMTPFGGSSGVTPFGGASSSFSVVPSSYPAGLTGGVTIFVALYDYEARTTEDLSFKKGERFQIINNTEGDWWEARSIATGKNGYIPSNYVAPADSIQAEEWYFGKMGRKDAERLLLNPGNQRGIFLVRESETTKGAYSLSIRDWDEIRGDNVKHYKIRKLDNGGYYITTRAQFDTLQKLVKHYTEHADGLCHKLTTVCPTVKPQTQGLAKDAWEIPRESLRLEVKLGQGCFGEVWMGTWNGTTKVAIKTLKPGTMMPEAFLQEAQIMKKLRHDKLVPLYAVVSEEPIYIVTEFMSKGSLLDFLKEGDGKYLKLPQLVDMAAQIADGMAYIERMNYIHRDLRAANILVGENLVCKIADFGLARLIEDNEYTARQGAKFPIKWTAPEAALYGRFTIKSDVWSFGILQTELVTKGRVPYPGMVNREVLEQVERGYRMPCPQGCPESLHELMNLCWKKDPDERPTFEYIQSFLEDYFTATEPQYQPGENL
# measurement.description: Yes1 enzyme inhibitory activity (time-resolved fluorometry, biotinylated peptide phosphorylation)
# Assay type: biochemical
# protocol.conditions: biotinylated peptide phosphorylation, read-out: YES_IC50
pIC50: −log10 of the molar value.
quantity: pIC50

# annotated cases, reported pIC50 shown
| item.smiles | quantitative.result |
| --- | --- |
| Cc1cc2cc(C(=O)c3cnn(-c4cnc(Oc5ccccc5F)cc4C)c3N)[nH]c2cc1NS(=O)(=O)c1cccc2ccccc12 | 7.60 |
| COc1cc2cc(C(=O)c3cnn(-c4ccc(Oc5ccccc5F)cc4C)c3N)[nH]c2cc1N1CCCS1(=O)=O | 8.85 |
| Cc1cc(Oc2ccccc2F)ccc1-n1ncc(C(=O)c2cc3cc(OC(F)F)c(N4CCOCC4)cc3[nH]2)c1N | 9.16 |
| Cc1cc(Oc2ccccc2)cc(F)c1-n1ncc(C(=O)c2cc3cc(F)c(NS(=O)(=O)C4CC4)cc3[nH]2)c1N | 8.31 |
| Cc1cc(Oc2c(F)cccc2F)ncc1-n1ncc(C(=O)c2cc3cc(OC(F)F)c(N4CCOC4=O)cc3[nH]2)c1N | 9.08 |
| Cc1cc2cc(C(=O)c3cnn(-c4cnc(Oc5c(F)cccc5F)cc4C)c3N)[nH]c2cc1N1C(=O)N[C@@H](C)C1=O | 8.85 |
| CC(C)N1CCC(c2cc3cc(C(=O)c4cnn(-c5ccc(Oc6cccc(F)c6F)cc5F)c4N)[nH]c3cc2F)CC1 | 9.04 |
| Cc1cc2cc(C(=O)c3cnn(-c4cnc(Oc5c(F)cccc5F)cc4C)c3N)[nH]c2cc1NS(=O)(=O)c1cncc(F)c1 | 8.21 |
| Cc1cc2cc(C(=O)c3cnn(-c4cnc(Oc5c(F)cccc5F)cc4C)c3N)[nH]c2cc1NS(=O)(=O)c1cccc(C#N)n1 | 8.04 |
| Cc1cc2cc(C(=O)c3cnn(-c4ccc(Oc5ccccc5F)cc4C)c3N)[nH]c2cc1N1C(=O)NC2(COC2)C1=O | 9.25 |

1. Cc1cc(Oc2ccccc2F)cc(F)c1-n1ncc(C(=O)c2cc3cc(OC(F)F)c(C4CCN(S(C)(=O)=O)CC4)cc3[nH]2)c1N
2. Cc1cc(Oc2ccccc2Cl)ncc1-n1ncc(C(=O)c2cc3cc(F)c(NS(C)(=O)=O)cc3[nH]2)c1N
IN: Would you let me know which has the greater pIC50 value, 1 or 2 ? // return label of chosen record
OUT: 2
(2: 9.04, 1: 8.47)

###

# target.desc: human Yes1 enzyme (Homo sapiens)
# Construct: made in house
# measurement.description: Yes1 enzyme inhibitory activity (time-resolved fluorometry, biotinylated peptide phosphorylation)
# Format: biochemical
# protocol.conditions: read-out: YES_IC50
pIC50: −log10 of the molar value.
quantity: pIC50

Worked examples, 3 compounds total:
| item.smiles | quantity | quantitative.result |
| --- | --- | --- |
| Cc1cc(Oc2c(F)cccc2F)ncc1-n1ncc(C(=O)c2cc3cc(OC4CCN(C(C)C)CC4)c(-c4cnn(C)c4)cc3[nH]2)c1N | pIC50 | 9.11 |
| Cc1cc(Oc2ccccc2F)ccc1-n1ncc(C(=O)c2cc3cc(N4CCOCC4)c(N4CCOC4=O)cc3[nH]2)c1N | pIC50 | 9.38 |
| Cc1cc2cc(C(=O)c3cnn(-c4cnc(Oc5c(F)cccc5F)cc4C)c3N)[nH]c2cc1N1C(=O)NC(C)(C)C1=O | pIC50 | 8.64 |

P. Cc1cc(-n2ncc(C(=O)c3cc4cc(OC5CCN(C(C)C)CC5)c(N)cc4[nH]3)c2N)ccc1Oc1ccccc1F
Q. Cc1cc2cc(C(=O)c3cnn(-c4ccc(Oc5ncccc5Cl)cc4Cl)c3N)[nH]c2cc1NS(=O)(=O)CCCF
IN: Quick check, higher pIC50 between P and Q ? Give the label of your selection.
OUT: P
(P: 9.19, Q: 8.55)
